# measurementTarget: PI3K α (p110α/p85α) (Homo sapiens, UniProt P42336)
# Construct: purchased Upstate / Millipore Corporation
# Sequence (P42336 whole entry): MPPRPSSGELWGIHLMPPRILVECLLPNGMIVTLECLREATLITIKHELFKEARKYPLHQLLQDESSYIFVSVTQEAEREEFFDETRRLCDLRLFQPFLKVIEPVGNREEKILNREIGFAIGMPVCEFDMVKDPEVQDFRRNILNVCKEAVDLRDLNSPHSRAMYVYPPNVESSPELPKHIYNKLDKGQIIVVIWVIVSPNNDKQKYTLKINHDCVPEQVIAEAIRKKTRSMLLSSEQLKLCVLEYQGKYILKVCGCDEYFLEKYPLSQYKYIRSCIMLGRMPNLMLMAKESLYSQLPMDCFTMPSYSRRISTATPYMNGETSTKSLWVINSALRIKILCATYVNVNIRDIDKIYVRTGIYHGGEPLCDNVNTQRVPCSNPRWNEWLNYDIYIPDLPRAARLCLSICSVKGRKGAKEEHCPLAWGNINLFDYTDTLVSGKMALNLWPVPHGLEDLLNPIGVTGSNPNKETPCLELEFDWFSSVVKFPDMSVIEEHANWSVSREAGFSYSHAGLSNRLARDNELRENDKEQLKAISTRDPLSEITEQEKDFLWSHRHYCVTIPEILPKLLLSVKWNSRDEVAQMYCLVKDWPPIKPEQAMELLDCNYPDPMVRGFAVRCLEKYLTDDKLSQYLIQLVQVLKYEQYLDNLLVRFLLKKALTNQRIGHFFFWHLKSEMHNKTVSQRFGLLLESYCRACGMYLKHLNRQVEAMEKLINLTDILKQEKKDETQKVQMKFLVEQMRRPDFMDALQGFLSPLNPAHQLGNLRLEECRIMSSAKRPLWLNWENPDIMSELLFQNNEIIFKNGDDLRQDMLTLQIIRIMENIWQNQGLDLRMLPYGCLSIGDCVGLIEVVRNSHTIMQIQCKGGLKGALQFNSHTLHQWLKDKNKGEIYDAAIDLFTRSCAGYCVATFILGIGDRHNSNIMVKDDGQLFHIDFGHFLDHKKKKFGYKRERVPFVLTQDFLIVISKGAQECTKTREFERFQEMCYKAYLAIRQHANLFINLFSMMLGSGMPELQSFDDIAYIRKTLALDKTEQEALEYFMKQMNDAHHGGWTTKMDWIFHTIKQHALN
# Sequence (P27986 whole entry partner): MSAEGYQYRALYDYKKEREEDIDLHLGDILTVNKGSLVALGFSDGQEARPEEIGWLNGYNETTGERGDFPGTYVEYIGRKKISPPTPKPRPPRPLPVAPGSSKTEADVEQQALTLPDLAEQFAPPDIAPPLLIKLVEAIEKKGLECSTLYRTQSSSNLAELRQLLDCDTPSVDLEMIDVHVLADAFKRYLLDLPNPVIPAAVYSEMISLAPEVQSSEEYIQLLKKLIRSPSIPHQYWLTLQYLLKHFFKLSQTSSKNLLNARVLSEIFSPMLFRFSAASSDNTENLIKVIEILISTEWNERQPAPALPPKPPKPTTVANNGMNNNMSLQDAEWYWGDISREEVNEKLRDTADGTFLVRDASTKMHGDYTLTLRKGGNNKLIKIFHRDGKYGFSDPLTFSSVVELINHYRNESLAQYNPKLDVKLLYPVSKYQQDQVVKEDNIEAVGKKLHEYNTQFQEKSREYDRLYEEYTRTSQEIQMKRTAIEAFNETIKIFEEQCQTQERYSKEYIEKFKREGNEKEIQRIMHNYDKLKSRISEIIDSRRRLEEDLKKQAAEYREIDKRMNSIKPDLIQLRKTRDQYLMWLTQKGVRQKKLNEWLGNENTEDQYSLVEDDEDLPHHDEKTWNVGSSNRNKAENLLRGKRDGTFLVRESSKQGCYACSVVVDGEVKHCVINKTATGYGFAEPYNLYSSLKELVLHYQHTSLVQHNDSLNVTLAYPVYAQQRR
# assayProcedure: PI 3-Kinase (human) HTRF assay, PI3K α
# Format: biochemical
# statedConditions: read-out: PI3K α IC50
testReadout: IC50

Please review the entries below; each comes with its answer.
[
  {
    "molecule": "COc1ccc(-c2ccc3ncc(C(=O)N4CCOCC4)n3c2)cc1NS(C)(=O)=O [Compound 456]",
    "recordedResult": "> 10000 nM"
  },
  {
    "molecule": "Nc1nc2cc(-c3ccc4ncc(N5CCN(C(=O)[C@H]6CCCN6)CC5)nc4c3)ccc2o1 [Compound 225]",
    "recordedResult": "< 100 nM"
  },
  {
    "molecule": "Nc1nc2cc(-c3ccc4ncn(C5CCOCC5)c(=O)c4c3)ccc2o1 [Compound 55]",
    "recordedResult": "< 1000 nM"
  },
  {
    "molecule": "Nc1nc2cc(-c3ccc4ncc(N5CCOCC5)nc4c3)ccc2o1 [Compound 64]",
    "recordedResult": "< 100 nM"
  },
  {
    "molecule": "CC(C)(C)N1CCN(C(=O)c2cnc3ccc(-c4ccc5oc(N)nc5c4)cn23)CC1 [Compound 191]",
    "recordedResult": "< 100 nM"
  },
  {
    "molecule": "CC1(C)CN(C2CN(C(=O)c3cnc4ccc(-c5ccc6oc(N)nc6c5)cn34)C2)CCN1 [Compound 515]",
    "recordedResult": "< 100 nM"
  }
]

For this molecule ( Nc1nc2cc(-c3ccc4ncc(C(=O)NC5CC5)n4c3)ccc2o1 [Compound 187] ), measured IC50 is < 100 nM

Lab book: IC50 of CNc1nsc2cc(-c3ccc4ncc(C(=O)N5CCOCC5)n4c3)ccc12 [Compound 497] noted as > 10000 nM

What the record says about Cc1nccn1C1CN(c2cnc3ccc(-c4ccc5oc(N)nc5c4)cc3n2)C1 [Compound 354] : IC50 is < 100 nM

----------
# measurementTarget: PI3K β (p110β/p85α) (Homo sapiens, UniProt P42338)
# Construct: purchased Upstate / Millipore Corporation
# Sequence (P42338 whole entry): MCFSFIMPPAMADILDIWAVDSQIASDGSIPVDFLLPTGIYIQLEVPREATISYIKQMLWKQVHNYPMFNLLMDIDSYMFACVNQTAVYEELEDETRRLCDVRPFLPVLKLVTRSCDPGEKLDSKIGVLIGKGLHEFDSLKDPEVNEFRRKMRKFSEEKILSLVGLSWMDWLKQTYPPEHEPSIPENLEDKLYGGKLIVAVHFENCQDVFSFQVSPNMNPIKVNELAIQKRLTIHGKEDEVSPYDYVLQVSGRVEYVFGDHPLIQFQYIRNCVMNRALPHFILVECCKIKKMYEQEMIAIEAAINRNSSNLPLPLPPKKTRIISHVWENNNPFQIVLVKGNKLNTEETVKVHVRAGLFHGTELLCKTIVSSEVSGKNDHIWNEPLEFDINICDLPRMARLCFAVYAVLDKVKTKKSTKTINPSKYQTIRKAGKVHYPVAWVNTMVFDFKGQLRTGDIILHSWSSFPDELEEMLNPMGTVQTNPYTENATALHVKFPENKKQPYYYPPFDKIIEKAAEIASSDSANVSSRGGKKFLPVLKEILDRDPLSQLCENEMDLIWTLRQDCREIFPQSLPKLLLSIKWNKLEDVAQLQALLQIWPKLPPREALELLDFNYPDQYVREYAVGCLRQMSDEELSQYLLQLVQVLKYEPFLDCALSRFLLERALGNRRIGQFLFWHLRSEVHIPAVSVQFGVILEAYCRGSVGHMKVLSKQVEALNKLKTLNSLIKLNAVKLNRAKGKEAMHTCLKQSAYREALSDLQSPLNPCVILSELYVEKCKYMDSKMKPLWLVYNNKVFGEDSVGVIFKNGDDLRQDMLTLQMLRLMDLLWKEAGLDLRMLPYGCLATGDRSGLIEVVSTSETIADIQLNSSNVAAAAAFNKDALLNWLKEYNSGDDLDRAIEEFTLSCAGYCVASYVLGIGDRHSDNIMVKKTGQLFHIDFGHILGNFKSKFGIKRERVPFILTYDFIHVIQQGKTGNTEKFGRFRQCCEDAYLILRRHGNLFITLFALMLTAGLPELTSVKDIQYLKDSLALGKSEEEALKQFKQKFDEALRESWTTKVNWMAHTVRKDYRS
# Sequence (P27986 whole entry partner): as the sequence (P27986 whole entry partner) above
# assayProcedure: PI 3-Kinase (human) HTRF assay, PI3K β
# Type: biochemical
# statedConditions: read-out: PI3K β IC50
testReadout: IC50

Some molecules with recorded IC50:
[
  {
    "molecule": "Cn1ncc2c(-c3ccc4ncc(C(=O)N5CCOCC5)n4c3)cncc21 [Compound 537]",
    "measurementTarget": "PI3K β (p110β/p85α) (Homo sapiens, UniProt P42338)",
    "recordedResult": "> 10 µM"
  },
  {
    "molecule": "COc1ncc(-c2ccc3ncc(C(=O)N4CCOCC4)n3c2)cc1NS(C)(=O)=O [Compound 416]",
    "measurementTarget": "PI3K β (p110β/p85α) (Homo sapiens, UniProt P42338)",
    "recordedResult": "< 10 µM"
  },
  {
    "molecule": "Nc1nc2cc(-c3ccc4ncc(S(=O)(=O)N5CCOCC5)n4c3)ccc2o1 [Compound 109]",
    "measurementTarget": "PI3K β (p110β/p85α) (Homo sapiens, UniProt P42338)",
    "recordedResult": "> 10 µM"
  }
]

Cc1nc(NC(=O)N2CCC[C@H]2C(N)=O)sc1-c1ccc2oc(N)nc2c1 [Compound 311] has a reported IC50 of > 10 µM

# molecule CN(C(=O)c1cnc2ccc(-c3ccc4oc(N)nc4c3)cn12)C1CCOCC1 [Compound 472] ; its IC50 = < 10 µM

Entry CC(=O)Nc1nc2cc(-c3ccc4oc(N)nc4c3)ccc2s1 [Compound 250] , IC50 reported as > 10 µM

For Nc1nc2cc(-c3ccc4ncc(N5CCN(C6CC6)CC5)nc4c3)ccc2o1 [Compound 261] the molecule record lists IC50 as < 1 µM

Query CC(=O)N1CCN(c2cnc3ccc(-c4ccc5oc(N)nc5c4)cc3n2)CC1 [Compound 85] yields IC50 of < 0.1 µM
